Each item that follows carries a reported Kp at 24 h.
assay-text: Brain-plasma Pharmacokinetics
conditions: male, CD-1 (ICR), mouse, brain/plasma, 20 mg/kg

Consider the worked cases shown below.
molecule: Cn1ccc2ccc(Sc3cnc(N4CCC5(CC4)Cc4ccccc4[C@H]5N)cn3)c(Cl)c2c1=O [Example 41]
Kp at 24 h: > 0.25
//
molecule: Cn1ccc2ccc(Sc3ncc(N4CCC5(CC4)Cc4ccccc4[C@H]5N)nc3N)c(Cl)c2c1=O [Example 47]
Kp at 24 h: 0.1 to 0.25
//
molecule: COC(C)(C)Cn1cnc2ccc(Sc3cnc(N4CCC5(CC4)Cc4ccccc4[C@H]5N)nn3)c(Cl)c2c1=O [Example 34]
Kp at 24 h: 0.1 to 0.25

Now consider a different molecule.
Tell me Kp at 24 h reported for CC(C)n1ccc2ccc(Sc3ncc(N4CCC5(CC4)Cc4ccccc4[C@H]5N)nc3N)c(Cl)c2c1=O [Example 48] 0.1 to 0.25

---

Each item that follows carries a reported pIC50.
Test system: H358 cells
assay-text: Cell viability (3D spheroid, 3D CellTiter-Glo)
Format: cell-based
conditions: Homo sapiens, NCI-H358, 120 h; H358 spheroids, 5 days treatment
pIC50: −log10 of the molar value.

Consider the worked cases shown below.
sample-smiles: CC(C)n1ccc2ccc(Sc3ncc(N4CCC5(CC4)Cc4ccccc4[C@H]5N)nc3N)c(Cl)c2c1=O
pIC50: > 8.00

sample-smiles: Cn1cnc2ccc(Sc3cnc(N4CCC5(CC4)Cc4ncsc4[C@H]5N)cn3)cc2c1=O
pIC50: > 8.00

sample-smiles: CCn1cnc2ccc(Sc3cnc(N4CCC5(CC4)Cc4ncsc4[C@H]5N)cn3)c(Cl)c2c1=O
pIC50: > 8.00

Tell me pIC50 reported for C[C@@H]1OCC2(CCN(c3cnc(Sc4ccc5ncn(CC6(C)CCOCC6)c(=O)c5c4Cl)cn3)CC2)[C@@H]1N 7.30 to 8.00

Tell me pIC50 reported for CC(C)n1ccc2ccc(Sc3cnc(N4CCC5(CC4)CO[C@@H](C)[C@H]5N)cn3)c(Cl)c2c1=O 7.30 to 8.00

Tell me pIC50 reported for COC(C)(C)Cn1cnc2ccc(Sc3ncc(N4CCC5(CC4)Cc4ccccc4[C@H]5N)nc3N)c(Cl)c2c1=O > 8.00

Tell me pIC50 reported for C[C@@H]1OCC2(CCN(c3cnc(Sc4ccc5ccn(C)c(=O)c5c4Cl)cn3)CC2)[C@@H]1N 7.30 to 8.00

---

tested-system: SHP2 (Homo sapiens, UniProt Q06124)
Construct: SHP2 (full length, diluted to 100 pM final concentration in reaction buffer, BPS bioscience, US); purchased BPS bioscience, US
Sequence (Q06124 whole entry): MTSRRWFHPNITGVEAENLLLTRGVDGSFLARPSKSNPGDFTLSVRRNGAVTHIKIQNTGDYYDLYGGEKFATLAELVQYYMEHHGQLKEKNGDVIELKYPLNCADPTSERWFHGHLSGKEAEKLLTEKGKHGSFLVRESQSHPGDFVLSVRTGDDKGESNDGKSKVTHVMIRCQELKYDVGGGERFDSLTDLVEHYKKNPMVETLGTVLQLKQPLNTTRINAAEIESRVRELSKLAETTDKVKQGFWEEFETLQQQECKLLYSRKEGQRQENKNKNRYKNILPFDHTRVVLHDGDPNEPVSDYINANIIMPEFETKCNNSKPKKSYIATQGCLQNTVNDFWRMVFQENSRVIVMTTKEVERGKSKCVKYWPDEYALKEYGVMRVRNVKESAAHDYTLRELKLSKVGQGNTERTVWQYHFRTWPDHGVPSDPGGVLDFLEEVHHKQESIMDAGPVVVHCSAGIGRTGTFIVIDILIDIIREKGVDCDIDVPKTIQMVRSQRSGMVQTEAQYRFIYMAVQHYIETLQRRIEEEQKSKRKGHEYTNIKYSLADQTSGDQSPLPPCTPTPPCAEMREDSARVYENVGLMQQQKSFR
assay-text: Phosphatase assay (PTPase assay, DiFMUP substrate)
Assay type: biochemical
conditions: full length SHP2 100 pM activated with SHP2 activating peptide, DiFMUP 80 µM, 2 hours; read-out: PTPase assay (IC50)
measured-endpoint: IC50

Consider the worked cases shown below.
compound: COC(C)(C)Cn1cnc2ccc(Sc3cnc(N4CCC5(CC4)Cc4ccccc4[C@H]5N)cn3)c(Cl)c2c1=O
tested-system: SHP2 (Homo sapiens, UniProt Q06124)
IC50: < 3 nM

compound: CC(C)n1ccc2ccc(Sc3cnc(N4CCC5(CC4)Cc4ncsc4[C@H]5N)cn3)c(Cl)c2c1=O
tested-system: SHP2 (Homo sapiens, UniProt Q06124)
IC50: 3 to 100 nM

compound: COC(C)(C)C(F)n1cnc2ccc(Sc3cnc(N4CCC5(CC4)CO[C@@H](C)[C@H]5N)cn3)c(Cl)c2c1=O (stereo partly drawn)
tested-system: SHP2 (Homo sapiens, UniProt Q06124)
IC50: < 3 nM

compound: COC(C)(C)Cn1cnc2ccc(Sc3nc(CO)c(N4CCC5(CC4)Cc4ccccc4[C@H]5N)nc3C)c(Cl)c2c1=O
tested-system: SHP2 (Homo sapiens, UniProt Q06124)
IC50: < 3 nM

compound: CC1(CN)CCN(c2cnc(Sc3ccc4ncn(Cc5ccccc5)c(=O)c4c3Cl)c(N)n2)CC1
tested-system: SHP2 (Homo sapiens, UniProt Q06124)
IC50: 3 to 100 nM

Now consider a different compound.
Tell me IC50 reported for COC(C)(C)Cn1ccc2ccc(Sc3cnc(N4CCC5(CC4)Cc4ccccc4[C@H]5N)cn3)c(Cl)c2c1=O < 3 nM
